B1: Azoarcus group I ribozyme (parent)
chain: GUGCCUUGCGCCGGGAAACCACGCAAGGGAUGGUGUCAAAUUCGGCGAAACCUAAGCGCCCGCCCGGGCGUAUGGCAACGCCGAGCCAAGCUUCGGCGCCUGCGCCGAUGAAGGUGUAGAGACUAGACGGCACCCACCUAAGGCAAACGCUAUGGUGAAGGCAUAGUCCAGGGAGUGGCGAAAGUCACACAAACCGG

variants of: B1; experiment: reverse-splicing fitness (ratio to wild type); higher = more active; in vitro selection; Mg2+ level not given
Lab note: compare reverse-splicing fitness against 0.01. Equal or greater, write true (1). Smaller, write false (0).

| sequence_variant | classification |
| --- | --- |
| A111G A120U A145G C150A C169U U176C | false (0) |
| C82A A111U A120U A145G C150A C169A U176G | false (0) |
| A111G A120U A145C C150U C169G U176C | false (0) |
| A120C A145C C150U C169A U176A | true (1) |
| C82U A111C A120G A145C C150G C169G U176G | false (0) |
| C82G A111C A120G C150G C169U U176C | true (1) |
| A120U A145C C150A C169U U176A | false (0) |
| A111U A120G C150G C169A | true (1) |
| C82A A111C A120U A145C C150A U176G | false (0) |
| C82U A145G C150U C169G U176C | true (1) |
| C82U A120U C150G C169A U176A | false (0) |
| C82G A111G A120U C150G C169G U176G | false (0) |
| A111G A120G A145G C150A C169G U176G | false (0) |
| A120C A145G C150A C169G U176A | true (1) |
| A111C A120C A145U C150U C169U U176C | true (1) |
| C82A A145U C150A C169G | false (0) |
| A120C A145G C150G C169U U176G | false (0) |
| C82U A111C A120U C169G U176G | false (0) |
| C82U A111C A120G A145G C150G C169A U176A | true (1) |
| C82A A111U A120G A145U C150U C169G U176A | true (1) |
| A145C C169G U176G | false (0) |
| C82A A111C A120C C150G U176A | false (0) |
| C82A A111U A145G C150U | true (1) |
| C82A A111C A120C A145C C150A C169A U176C | false (0) |
| C82G A111C A120U A145C C169U U176A | false (0) |
| A111U A120C A145U C150U C169U U176C | true (1) |
| A120C A145U C169G U176C | true (1) |
| C82U A111U A145G C150G C169U U176C | true (1) |
| A120C A145G C150U C169U | true (1) |
| C82A A111G A120C A145G C150U C169A U176C | true (1) |
| C82G A111U A120C A145G C150G | true (1) |
| C82G A111U A145U C150U U176A | true (1) |
| C82U A111U A120G A145U C150U C169U U176A | true (1) |
| C82A A111C C150A C169A U176A | true (1) |
| C82G A111G A120C A145U C150U | true (1) |
| A111U A120G A145C C169U U176C | true (1) |
| C82U A111G A120U A145C C169U U176C | false (0) |
| A120U C150U C169G U176G | false (0) |
| C82A A111G A120C A145U C150U C169G U176C | true (1) |
| A111C A120C A145U C150G C169G | false (0) |
| C82U A111G A120G C150G | false (0) |
| C82U A111U A120U A145U C150G C169A | false (0) |
| C82U | true (1) |
| C82G A120U A145U C150U U176C | true (1) |
| A111G A120C A145G C150G C169G U176A | false (0) |
| C82U A111G A145C C150A C169A U176G | false (0) |
| A145C C150A U176C | true (1) |
| C82A A111C A120U A145G C150A C169U U176A | false (0) |
| C82A A111G A120C C150U U176C | true (1) |
| C82A A111U A145G C150A C169U | true (1) |
| C82U A120U A145C C169A U176G | false (0) |
| C82G A120G C169G | true (1) |
| C82G A111G A120C C169U U176C | true (1) |
| A120G A145G C169A U176G | false (0) |
| C82U A111U A120G A145G C150U U176C | true (1) |
| C82A A111C C150A C169G | false (0) |
| C82G A120U C150U C169A | false (0) |
| A111G A120U C150U C169U | true (1) |
| A111U A120G A145G C169A U176C | true (1) |
| C82U A145U C150G C169U U176C | true (1) |
| C82A A111G A120G C150U C169A | false (0) |
| A111C A120G A145C C150A C169G | true (1) |
| C82G A111U A120C C169G | false (0) |
| A111U A120C C150G C169A U176A | false (0) |
| C82G A120C A145U C150U C169G U176G | false (0) |
| C82A A120C A145C C150G C169A U176A | true (1) |
| C82G A120G A145G C150A C169G | true (1) |
| C82U A145G U176C | true (1) |
| C82G A111U A120G A145G C150A C169A U176C | true (1) |
| C82U A111U A120G A145G C150U C169U U176G | false (0) |
| C82U A111C A145C C150G C169U U176C | true (1) |
| C82U A111U A120C A145U C169A U176C | false (0) |
| A111C A120G C150G U176C | true (1) |
| C82G A120C C150G C169U U176A | false (0) |
| A120C A145C C169U U176A | true (1) |
| A111G A120G A145G C150A C169U | true (1) |
| C82A A111U A120U A145G C150U | true (1) |
| C82G A111G A120U A145U C150U C169A U176G | false (0) |
| A111U A120G C150A C169G U176G | false (0) |
| C82A A111C A120G A145C C169G U176G | false (0) |
| A111C C150G C169A U176A | false (0) |
| C82A A111G A120C A145U C150A C169G | false (0) |
| C82U A111G A120C U176C | true (1) |
| C82U A111G U176A | true (1) |
